Entries and their Ki
# EXPERIMENTAL TARGET: Trypanothione reductase (Trypanosoma cruzi)
# Sequence (P28593 whole entry): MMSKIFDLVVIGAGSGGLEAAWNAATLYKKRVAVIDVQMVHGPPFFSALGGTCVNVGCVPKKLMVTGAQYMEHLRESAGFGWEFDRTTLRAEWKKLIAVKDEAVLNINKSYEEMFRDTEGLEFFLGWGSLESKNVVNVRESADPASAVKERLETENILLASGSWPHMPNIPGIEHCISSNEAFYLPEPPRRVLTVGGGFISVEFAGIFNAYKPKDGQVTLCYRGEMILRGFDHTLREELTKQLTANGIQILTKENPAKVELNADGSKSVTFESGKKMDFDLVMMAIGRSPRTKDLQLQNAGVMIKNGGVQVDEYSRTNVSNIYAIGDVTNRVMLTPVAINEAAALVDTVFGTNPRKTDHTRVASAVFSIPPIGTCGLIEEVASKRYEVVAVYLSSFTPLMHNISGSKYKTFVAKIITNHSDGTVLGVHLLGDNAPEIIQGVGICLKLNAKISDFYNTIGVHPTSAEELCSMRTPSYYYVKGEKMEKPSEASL
# ASSAY OVERVIEW: Linear competitive inhibition of trypanothione reductase from Trypanosoma cruzi using TSST substrate
PROPERTY: Ki (nM)

1. CC(C)(C)c1ccc([N+](C)(C)CCCN2c3ccccc3Sc3ccc(Cl)cc32)cc1    570
2. CC(C)(C)c1ccc([N+](C)(C)CCCNc2cc(Cl)ccc2Sc2ccccc2)cc1    2670
3. C[N+](C)(CCCN1c2ccccc2Sc2ccc(Cl)cc21)c1ccc(Cl)c(Cl)c1    180

* * *

# EXPERIMENTAL TARGET: Trypanothione reductase (Trypanosoma cruzi)
# ASSAY OVERVIEW: Mixed inhibition of trypanothione reductase from Trypanosoma cruzi using TSST substrate
PROPERTY: Ki' (µM)

1) C[N+](C)(CCCN1c2ccccc2Sc2ccc(Cl)cc21)c1ccc(Cl)c(Cl)c1    3.5
2) CCCC(=O)Nc1cc(Cl)ccc1Sc1ccccc1    42.6
3) Nc1cc(Cl)ccc1Sc1ccccc1    860
4) O=C(Nc1cc(Cl)ccc1Sc1ccccc1)c1ccc([N+](=O)[O-])cc1    12.9
5) CCC(=O)Nc1cc(Cl)ccc1Sc1ccccc1    29.3
6) O=C(Cc1ccccc1)Nc1cc(Cl)ccc1Sc1ccccc1    35.9
7) O=C(Nc1cc(Cl)ccc1Sc1ccccc1)c1ccccc1    37.7
